- targetUnderTest: SIK2 (Homo sapiens (Human), UniProt Q9H0K1)
- Sequence (Q9H0K1 whole entry, species assumed): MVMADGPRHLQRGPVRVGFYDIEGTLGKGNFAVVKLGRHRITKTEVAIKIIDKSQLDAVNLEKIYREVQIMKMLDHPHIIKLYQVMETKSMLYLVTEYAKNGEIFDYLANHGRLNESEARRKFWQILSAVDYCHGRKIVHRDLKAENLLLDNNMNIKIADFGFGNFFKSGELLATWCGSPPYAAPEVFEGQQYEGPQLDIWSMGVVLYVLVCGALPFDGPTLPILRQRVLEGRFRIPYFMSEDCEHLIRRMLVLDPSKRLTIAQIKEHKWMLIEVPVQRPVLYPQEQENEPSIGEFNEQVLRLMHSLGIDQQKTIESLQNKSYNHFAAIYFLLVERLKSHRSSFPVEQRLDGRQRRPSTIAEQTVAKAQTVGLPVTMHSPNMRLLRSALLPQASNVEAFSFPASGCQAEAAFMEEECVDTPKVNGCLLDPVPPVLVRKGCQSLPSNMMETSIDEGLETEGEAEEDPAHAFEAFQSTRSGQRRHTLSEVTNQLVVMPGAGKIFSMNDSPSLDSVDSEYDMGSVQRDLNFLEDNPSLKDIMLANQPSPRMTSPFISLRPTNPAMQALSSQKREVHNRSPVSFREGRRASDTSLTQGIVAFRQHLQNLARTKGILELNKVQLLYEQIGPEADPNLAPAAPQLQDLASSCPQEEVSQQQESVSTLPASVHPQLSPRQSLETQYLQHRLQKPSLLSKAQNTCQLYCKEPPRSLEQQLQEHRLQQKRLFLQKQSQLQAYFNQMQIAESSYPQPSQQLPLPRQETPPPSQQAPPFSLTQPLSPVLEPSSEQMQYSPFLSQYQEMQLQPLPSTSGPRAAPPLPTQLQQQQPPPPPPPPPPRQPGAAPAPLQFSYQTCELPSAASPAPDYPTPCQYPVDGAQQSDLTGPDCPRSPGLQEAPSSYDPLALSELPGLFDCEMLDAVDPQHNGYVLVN
- assayText: SIK2 Enzymatic Assay Version 2 (High ATP)
- Type: biochemical
- conditionSummary: 3 mM ATP and 200 μM HDAC5tide final, ADP-Glo Max luminescence
measuredEndpoint: IC50 (nM)

CC(=O)CN1CC[C@@H]1COc1cnn(C)c1-c1ccn2nc(NC(=O)C3CC3)cc2c1 [Example 251]    45.6
CN1CCC[C@@H]1COc1cnn(C)c1-c1ccn2nc(NC(=O)C3CC3)cc2c1 [Example 239]    22.7
CN1CCCC[C@@H]1COc1cnn(C)c1-c1ccn2nc(NC(=O)C3CC3)cc2c1 [Example 507]    1700

(1) CCN1CC[C@@H]1COc1cnn(C)c1-c1ccn2nc(Nc3cnc(OC(F)F)cn3)cc2c1 [Example 181]
(2) Cn1ncc(OC[C@@H](O)C(F)(F)F)c1-c1ccn2nc(NC(=O)C3CC3)cc2c1 (single isomer, unassigned) [Example 401]
(3) CNC(=O)c1cc(Nc2cc3cc(-c4c(OC[C@H]5CCN5C)cnn4C)ccn3n2)nc(C)n1 [Example 120]
(4) Cn1ncc(CO[C@@H]2CNCC2(F)F)c1-c1ccn2nc(NC(=O)C3CC3)cc2c1 (single isomer, unassigned) [Example 189]
rank_up(items): orders items by reported IC50 in ascending numerical order. Answer by listing the labels in the order asked for. 1, 4, 3, 2

====

- targetUnderTest: SIK2 (Homo sapiens (Human), UniProt Q9H0K1)
- assayText: SIK2 Enzymatic Assay Version 2 (High ATP)
- Format: biochemical
- conditionSummary: 3 mM ATP and 200 μM HDAC5tide final, ADP-Glo Max luminescence
pIC50: −log10 of the molar value.
measuredEndpoint: pIC50

Use these answered entries as a reference point.
Cn1ncc(OC2CCNCC2)c1-c1ccn2nc(NC(=O)C3CC3)cc2c1    7.07
Cn1ncc(COC2CNCC2(F)F)c1-c1ccn2nc(NC(=O)C3CC3)cc2c1 (racemic)    7.84
COC1(COc2noc(C)c2-c2ccn3nc(NC(=O)C4CC4)cc3c2)CCNC1 (racemic)    7.63
C[C@@H]1CC[C@H](COc2cnn(C)c2-c2ccn3nc(NC(=O)C4CC4)cc3c2)N1C    7.38
Cc1cc(Nc2cc3cc(-c4c(CO[C@H]5CN(C)C[C@H]5C)cnn4C)ccn3n2)nc(C)n1 (stereo in doubt) [Example 368]    8.48

(A) CCN1CCC[C@@H]1COc1cnn(C)c1-c1ccn2nc(Nc3cc(C)nc(C)n3)cc2c1
(B) CCN1CC[C@@H]1COc1cnn(C)c1-c1ccn2nc(Nc3ncc(C)c(C)n3)cc2c1
Compare reported pIC50 values for A and B . Which is lower? Give the chosen item's label as your response. B

====

- targetUnderTest: SIK2 (Homo sapiens (Human))
- assayText: SIK2 Enzymatic Assay Version 2 (High ATP)
- Assay type: biochemical
- conditionSummary: 3 mM ATP and 200 μM HDAC5tide final, ADP-Glo Max luminescence
- Experimental: All steps were performed at room temperature. Compounds were pre-plated onto an assay plate using an Echo acoustic dispenser (Labcyte, […] or […]) at 80 nL per well. […] The plate was then read on the Pherastar (BMG Labtech) using a luminescence read. […]
pIC50: −log10 of the molar value.
measuredEndpoint: pIC50

Cc1onc(OC[C@H]2CCCN2C)c1-c1ccn2nc(NC(=O)C3CC3)cc2c1    6.84

(P) CN1CC[C@H](Oc2cnn(C)c2-c2ccn3nc(Nc4ccccn4)cc3c2)C1
(Q) CCC1(OCc2cnn(C)c2-c2ccn3nc(NC(=O)C4CC4)cc3c2)CN(C)C1
Please compare: P and Q . Report which one has the smaller pIC50 value. Give the label under which the chosen entry appears. P

(A) Cc1cc(Nc2cc3cc(-c4c(OC[C@@H](O)C5(C)CC5)cnn4C)ccn3n2)nc(C)n1 (single isomer, unassigned) [Example 357]
(B) C[C@H]1CNC[C@H]1OCc1cnn(C)c1-c1ccn2nc(NC(=O)C3CC3)cc2c1 (single isomer, unassigned)
(C) CN1CC(C)(OCc2cnn(C)c2-c2ccn3nc(NC(=O)C4CC4)cc3c2)C1
Order by pIC50, ascending. Quick reminder: the answer is the labels in the order asked. A, C, B
(A: 7.21, C: 7.71, B: 8.33)
